Here is a set of compounds with reported IC50 for Angiopoietin-1 receptor (Homo sapiens), compiled from the literature.

testSmiles: c1ccc2c(NC3CCNCC3)nc(-c3ccncc3)nc2c1
IC50: ≥ 10000 nM
--
testSmiles: Nc1ncnc2c1ncn2-c1ccc(NC(=O)Nc2cccc(OC(F)(F)F)c2)cc1
IC50: 35 nM
--
testSmiles: Nc1nccc(COc2cccnc2N2CCN(C(=O)Nc3cccc(C4CC4)c3)CC2)n1
IC50: < 50 nM
--
testSmiles: CN1CCN(CC(=O)Nc2cc(COc3nsnc3N3CCN(C(=O)Nc4cc(C(F)(F)F)cc(C(F)(F)F)c4)CC3)ccn2)CC1
IC50: < 50 nM
--
testSmiles: CN1CCN(c2ccc(-c3cnn4c(N)c(-c5ccccc5Cl)cnc34)cc2)CC1
IC50: < 1000 nM
--
testSmiles: COc1ccc(-c2nc(-c3ccncc3)nn2CCN(C(=O)Nc2cccc(C)c2C)C2CCCC2)cc1Cl
IC50: 1000 to 10000 nM
--
testSmiles: CNc1cc(COc2nsnc2N2CCNCC2)ccn1
IC50: ≥ 10000 nM
